- Tested on: Frataxin (FXN) mRNA
- test_details: Effect of HDAC inhibitors on frataxin (FXN) mRNA expression, qRT-PCR in compound-treated iPSC derived neuronal cells
- Format: cell-based
- reported_conditions: iPSC, 24 h, read-out: FXN mRNA fold induction, compound concentration of 0.625 μM, 24 h incubation
Where a name gives a salt, the structure may show the parent alone.
The following compounds are listed with their measured fold induction at 0.625 µM values.

| compound | fold induction at 0.625 µM |
| --- | --- |
| CN1C2CCC1CC(Nc1ccc(C(=O)Nc3ccccc3N)cc1)C2 (stereo not shown) [Compound 116, trihydrochloride] | 2 to 3 |
| CCN(c1ccc(C(=O)Nc2ccccc2N)cc1)C1CCN(CC(C)(C)O)CC1 [Compound 27, Trihydrochloride] | 2 to 3 |
| Nc1ccccc1NC(=O)c1ccc(OC2CC3CCC(C2)N3CC2CC2)cc1 (stereo not shown) [Compound 75, dihydrochloride] | 1 to 2 |

Kindly consider the entry below.
Query Nc1ccccc1NC(=O)c1ccc(NC2CC3CCC(C2)N3CC2CCCCC2)cc1 (stereo not shown) yields fold induction at 0.625 µM of 2 to 3

###

- Tested on: Frataxin (FXN) mRNA
- test_details: Effect of HDAC inhibitors on frataxin (FXN) mRNA expression, qRT-PCR in compound-treated iPSC derived neuronal cells
- Assay type: cell-based
- reported_conditions: iPSC, 24 h, read-out: FXN mRNA fold induction, compound concentration of 0.625 μM, 24 h incubation
Where a name gives a salt, the structure may show the parent alone.
metric_name: fold induction at 0.625 µM

Solved entries (count: 2):
| molecule | fold induction at 0.625 µM |
| --- | --- |
| CC(C)CN1C2CCC1CC(Oc1ccc(C(=O)Nc3ccccc3N)cc1)C2 (centres unmarked) [Compound 72, dihydrochloride] | 1 to 2 |
| CC(C)(O)CN1C2CCC1CC(Nc1ccc(C(=O)Nc3ccccc3N)cc1)C2 (centres unmarked) | 2 to 3 |

Query CN1C2CCC1CC(Oc1ccc(C(=O)Nc3ccccc3N)cc1)C2 (centres unmarked) [Compound 71, dihydrochloride] yields fold induction at 0.625 µM of 1 to 2

Query Nc1ccccc1NC(=O)c1ccc(NC2CC3CCC(C2)N3CC2CC2)cc1 (centres unmarked) [Compound 120, trihydrochloride] yields fold induction at 0.625 µM of 1 to 2

Query CC(C)(O)CN1CCC(N(CC2CC2)c2ccc(C(=O)Nc3ccccc3N)cc2)CC1 [Compound 29, Trihydrochloride] yields fold induction at 0.625 µM of 1 to 2

Query CCN(c1ccc(C(=O)Nc2ccccc2N)cc1)C1CCN(CC2CC2)CC1 [Compound 26, Trihydrochloride] yields fold induction at 0.625 µM of 2 to 3

Query CC(C)(C)CN1C2CCC1CC(Nc1ccc(C(=O)Nc3ccccc3N)cc1)C2 (centres unmarked) yields fold induction at 0.625 µM of 2 to 3

Query Nc1ccccc1NC(=O)c1ccc(OC2CC3CCC(C2)N3CC2CCCCC2)cc1 (centres unmarked) [Compound 77, dihydrochloride] yields fold induction at 0.625 µM of 1 to 2

###

- Tested on: Frataxin (FXN) mRNA
- test_details: Effect of HDAC inhibitors on frataxin (FXN) mRNA expression, qRT-PCR in compound-treated iPSC derived neuronal cells
- Assay type: cell-based
- reported_conditions: iPSC, 24 h, read-out: FXN mRNA fold induction, compound concentration of 0.625 μM, 24 h incubation
Structures can show the parent of a compound that is named as a salt.
metric_name: fold induction at 0.625 µM

Solved entries (count: 2):
| molecule | fold induction at 0.625 µM |
| --- | --- |
| CC1(CN2C3CCC2CC(Oc2ccc(C(=O)Nc4ccccc4N)cc2)C3)CC1 (centres unmarked) [Compound 76, dihydrochloride] | 2 to 3 |
| CN(c1ccc(C(=O)Nc2ccccc2N)cc1)C1CCN(CC(C)(C)O)CC1 | 2 to 3 |

Kindly consider the entry below.
Query Nc1ccccc1NC(=O)c1ccc(N(CC2CC2)C2CCN(CC3CC3)CC2)cc1 [Compound 28, Trihydrochloride] yields fold induction at 0.625 µM of 2 to 3
